Quick reference for IC50 among some compounds
target under test: Vascular endothelial growth factor receptor 3 (Homo sapiens, UniProt P35916)
Sequence (P35916 whole entry): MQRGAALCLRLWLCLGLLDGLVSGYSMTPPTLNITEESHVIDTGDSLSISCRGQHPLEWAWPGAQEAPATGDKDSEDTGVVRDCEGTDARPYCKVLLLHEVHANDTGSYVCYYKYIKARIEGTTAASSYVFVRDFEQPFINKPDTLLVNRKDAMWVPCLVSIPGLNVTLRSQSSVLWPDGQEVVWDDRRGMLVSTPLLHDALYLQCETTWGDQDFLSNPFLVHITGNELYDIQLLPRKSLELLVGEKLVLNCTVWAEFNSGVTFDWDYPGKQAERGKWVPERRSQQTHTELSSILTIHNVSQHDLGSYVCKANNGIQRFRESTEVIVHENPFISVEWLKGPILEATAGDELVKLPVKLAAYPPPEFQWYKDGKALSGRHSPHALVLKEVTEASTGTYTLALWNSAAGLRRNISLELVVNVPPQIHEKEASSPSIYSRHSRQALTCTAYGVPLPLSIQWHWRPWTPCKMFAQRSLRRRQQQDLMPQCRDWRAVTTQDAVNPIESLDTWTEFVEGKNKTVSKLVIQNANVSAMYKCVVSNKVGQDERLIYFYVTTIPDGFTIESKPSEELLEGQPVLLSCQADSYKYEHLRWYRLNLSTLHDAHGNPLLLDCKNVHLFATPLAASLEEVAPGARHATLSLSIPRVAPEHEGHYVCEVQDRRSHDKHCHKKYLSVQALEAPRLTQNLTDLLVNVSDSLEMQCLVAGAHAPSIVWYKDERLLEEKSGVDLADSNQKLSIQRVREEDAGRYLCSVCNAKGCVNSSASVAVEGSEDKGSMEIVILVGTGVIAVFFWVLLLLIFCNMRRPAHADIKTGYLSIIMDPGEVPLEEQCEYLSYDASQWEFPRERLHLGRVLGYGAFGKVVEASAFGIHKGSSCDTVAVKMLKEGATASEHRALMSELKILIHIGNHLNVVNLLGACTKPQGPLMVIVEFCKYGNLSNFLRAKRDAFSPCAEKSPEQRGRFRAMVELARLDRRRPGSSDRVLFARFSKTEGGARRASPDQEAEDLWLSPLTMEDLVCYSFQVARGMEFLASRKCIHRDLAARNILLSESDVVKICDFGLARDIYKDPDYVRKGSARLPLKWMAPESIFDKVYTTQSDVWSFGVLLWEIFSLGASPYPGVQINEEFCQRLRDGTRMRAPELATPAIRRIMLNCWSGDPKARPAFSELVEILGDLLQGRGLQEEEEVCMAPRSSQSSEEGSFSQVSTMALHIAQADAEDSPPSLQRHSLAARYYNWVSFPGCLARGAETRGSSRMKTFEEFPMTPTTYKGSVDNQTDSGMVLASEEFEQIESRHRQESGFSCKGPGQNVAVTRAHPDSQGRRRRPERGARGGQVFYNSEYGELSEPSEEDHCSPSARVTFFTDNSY
procedure details: Inhibition of VEGFR3 after 30 mins by chemiluminescence ELISA
Structures can show the parent of a compound that is named as a salt.

| compound | IC50 |
| --- | --- |
| COCCc1ccc(O)cc1 | > 50 µM |
| CSc1ccc(CCCCCn2cc(CCNC(=O)OC(C)(C)C)c3cc(OCCc4ccc(O)cc4)ccc32)cc1 | > 50 µM |
| NCCc1c[nH]c2ccc(O)cc12 [SEROTONIN HYDROCHLORIDE] | > 50 µM |

###

Quick reference for pIC50 among some compounds
target under test: Epidermal growth factor receptor (Homo sapiens)
Sequence (P00533 whole entry): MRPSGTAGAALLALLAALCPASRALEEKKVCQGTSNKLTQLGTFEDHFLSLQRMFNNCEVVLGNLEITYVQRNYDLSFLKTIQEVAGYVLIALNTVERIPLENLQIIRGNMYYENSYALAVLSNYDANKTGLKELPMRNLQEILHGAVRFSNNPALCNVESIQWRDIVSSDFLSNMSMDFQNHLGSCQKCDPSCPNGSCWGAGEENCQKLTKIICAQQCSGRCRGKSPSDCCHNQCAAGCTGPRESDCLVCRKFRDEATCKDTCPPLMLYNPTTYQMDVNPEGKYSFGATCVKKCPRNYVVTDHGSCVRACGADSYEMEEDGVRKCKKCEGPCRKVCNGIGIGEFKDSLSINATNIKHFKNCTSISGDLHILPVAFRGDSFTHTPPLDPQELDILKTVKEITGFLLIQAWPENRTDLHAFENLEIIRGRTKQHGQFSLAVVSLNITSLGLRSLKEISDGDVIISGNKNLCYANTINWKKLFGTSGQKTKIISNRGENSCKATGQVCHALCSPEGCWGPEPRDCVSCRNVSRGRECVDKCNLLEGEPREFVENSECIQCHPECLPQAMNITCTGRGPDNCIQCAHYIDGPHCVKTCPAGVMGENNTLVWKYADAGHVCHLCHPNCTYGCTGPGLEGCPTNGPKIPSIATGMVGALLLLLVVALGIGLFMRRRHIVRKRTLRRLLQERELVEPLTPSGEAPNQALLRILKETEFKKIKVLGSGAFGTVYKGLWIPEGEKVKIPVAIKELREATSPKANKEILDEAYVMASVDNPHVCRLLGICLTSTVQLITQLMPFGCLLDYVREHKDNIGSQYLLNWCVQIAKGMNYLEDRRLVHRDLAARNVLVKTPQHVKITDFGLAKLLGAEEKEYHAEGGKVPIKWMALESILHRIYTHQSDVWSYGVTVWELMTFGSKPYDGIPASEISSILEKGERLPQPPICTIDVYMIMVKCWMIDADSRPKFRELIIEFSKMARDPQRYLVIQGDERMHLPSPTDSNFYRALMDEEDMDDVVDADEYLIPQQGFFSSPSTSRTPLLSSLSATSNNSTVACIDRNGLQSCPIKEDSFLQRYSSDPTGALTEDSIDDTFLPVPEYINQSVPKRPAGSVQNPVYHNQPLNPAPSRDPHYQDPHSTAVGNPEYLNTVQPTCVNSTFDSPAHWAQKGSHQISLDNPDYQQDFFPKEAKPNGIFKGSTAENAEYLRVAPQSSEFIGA
procedure details: Inhibition of EGFR after 30 mins by chemiluminescence ELISA
pIC50: −log10 of the molar value. Where a name gives a salt, the structure may show the parent alone.

| compound | pIC50 |
| --- | --- |
| COCCc1ccc(O)cc1 | < 4.30 |
| CSc1ccc(CCCCCn2cc(CCNC(=O)OC(C)(C)C)c3cc(OCCc4ccc(O)cc4)ccc32)cc1 | < 4.30 |
| NCCc1c[nH]c2ccc(O)cc12 [SEROTONIN HYDROCHLORIDE] | < 4.30 |

###

Quick reference for IC50 among some molecules
target under test: Insulin-like growth factor 1 receptor (Homo sapiens)
Sequence (P08069 31-736 limits assumed): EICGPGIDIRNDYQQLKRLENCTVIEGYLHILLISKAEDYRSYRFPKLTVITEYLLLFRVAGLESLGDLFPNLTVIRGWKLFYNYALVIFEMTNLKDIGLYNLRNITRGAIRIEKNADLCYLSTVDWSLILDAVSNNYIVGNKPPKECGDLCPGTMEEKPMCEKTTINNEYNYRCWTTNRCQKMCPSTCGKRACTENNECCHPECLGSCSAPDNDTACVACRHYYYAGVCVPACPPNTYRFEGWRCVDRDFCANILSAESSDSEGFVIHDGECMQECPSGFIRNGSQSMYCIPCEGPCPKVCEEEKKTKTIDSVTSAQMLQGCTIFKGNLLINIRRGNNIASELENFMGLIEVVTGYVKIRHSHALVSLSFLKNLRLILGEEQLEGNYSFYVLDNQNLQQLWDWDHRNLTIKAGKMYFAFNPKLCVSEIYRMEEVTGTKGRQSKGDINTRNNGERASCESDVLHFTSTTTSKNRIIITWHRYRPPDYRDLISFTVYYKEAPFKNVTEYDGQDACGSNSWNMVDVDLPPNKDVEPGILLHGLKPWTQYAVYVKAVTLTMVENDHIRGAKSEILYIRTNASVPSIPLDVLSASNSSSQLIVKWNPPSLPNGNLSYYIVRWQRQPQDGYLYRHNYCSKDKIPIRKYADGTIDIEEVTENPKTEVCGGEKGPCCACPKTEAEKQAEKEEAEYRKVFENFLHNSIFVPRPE
Sequence (P08069 741-1367 limits assumed): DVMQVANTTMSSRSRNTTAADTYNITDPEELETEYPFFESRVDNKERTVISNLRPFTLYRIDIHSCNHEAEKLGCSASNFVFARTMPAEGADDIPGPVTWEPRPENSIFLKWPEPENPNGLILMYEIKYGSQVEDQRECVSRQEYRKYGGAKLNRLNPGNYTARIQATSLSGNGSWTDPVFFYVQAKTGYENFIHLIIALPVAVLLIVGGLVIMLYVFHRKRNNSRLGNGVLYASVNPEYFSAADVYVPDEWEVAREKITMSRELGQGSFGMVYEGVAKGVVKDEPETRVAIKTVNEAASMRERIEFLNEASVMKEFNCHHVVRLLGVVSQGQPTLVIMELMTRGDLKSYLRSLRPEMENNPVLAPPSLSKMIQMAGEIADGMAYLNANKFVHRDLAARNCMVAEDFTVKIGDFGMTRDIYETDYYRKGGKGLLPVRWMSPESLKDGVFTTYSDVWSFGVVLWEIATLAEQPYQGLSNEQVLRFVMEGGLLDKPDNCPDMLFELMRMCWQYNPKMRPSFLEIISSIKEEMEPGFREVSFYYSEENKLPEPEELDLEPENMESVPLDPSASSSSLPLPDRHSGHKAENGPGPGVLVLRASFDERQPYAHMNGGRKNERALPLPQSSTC
procedure details: Inhibition of IGF1R after 30 mins by chemiluminescence ELISA
quantity name: IC50 (µM)

| molecule | target under test | bound operator | measured |
| --- | --- | --- | --- |
| NCCc1c[nH]c2ccc(OCCc3ccc(O)cc3)cc12 | Insulin-like growth factor 1 receptor (Homo sapiens) | = | 1.78 |
| CSc1ccc(CCCCCn2cc(CCNC(=O)OC(C)(C)C)c3cc(OCCc4ccc(O)cc4)ccc32)cc1 | Insulin-like growth factor 1 receptor (Homo sapiens) | > | 50 |
| COc1ccc(CCCCCn2c3c(c4cc(OCCc5ccc(O)cc5)ccc42)CC(N)CC3)cc1 (centres undefined) | Insulin-like growth factor 1 receptor (Homo sapiens) | = | 2.86 |
| COc1ccc(CCOc2ccc3c(c2)c(CCN)cn3CCCCCc2ccc(SC)cc2)cc1 | Insulin-like growth factor 1 receptor (Homo sapiens) | = | 0.98 |
